# Tested on: Carnobacterium 1 (Carnobacterium gallinarum)
# Measurement Protocol: relative growth (AUC of 72 h growth curve relative to DMSO control, dAUC) (ratio); higher = more growth (less inhibition), active = hit call of the paper
# Run Parameters: 20 µM
Known relative growth of a selection of compounds
Measured Property: relative growth

Compound: Nc1c([N+](=O)[O-])ccc(Oc2ccccc2)c1Cl
System Under Test: Carnobacterium 1 (Carnobacterium gallinarum)
Assay Value: 0.792
--
Compound: CCN(CC)c1nc(C)cc(OP(=S)(OC)OC)n1
System Under Test: Carnobacterium 1 (Carnobacterium gallinarum)
Assay Value: 1.07
--
Compound: CON(C)C(=O)Nc1ccc(Cl)c(Cl)c1
System Under Test: Carnobacterium 1 (Carnobacterium gallinarum)
Assay Value: 1.02
--
Compound: O=C1C=C(N(Cc2ccc(Cl)nc2)CC(F)F)CO1
System Under Test: Carnobacterium 1 (Carnobacterium gallinarum)
Assay Value: 1.06
--
Compound: CC1(C)[C@H](/C=C(\Cl)C(F)(F)F)[C@@H]1C(=O)OC(C#N)c1cccc(Oc2ccccc2)c1 (stereo not given in full)
System Under Test: Carnobacterium 1 (Carnobacterium gallinarum)
Assay Value: 1.38
--
Compound: N#CCNC(=O)c1cnccc1C(F)(F)F
System Under Test: Carnobacterium 1 (Carnobacterium gallinarum)
Assay Value: 1.06
--
Compound: COP(=S)(OC)SCN1C(=O)c2ccccc2C1=O
System Under Test: Carnobacterium 1 (Carnobacterium gallinarum)
Assay Value: 1.04
--
Compound: CC(C)OC(=O)C(C(=O)OC(C)C)=C1SCCS1
System Under Test: Carnobacterium 1 (Carnobacterium gallinarum)
Assay Value: 0.826
--
Compound: CCc1nn(C)c(C(=O)NCc2ccc(Oc3ccc(C)cc3)cc2)c1Cl
System Under Test: Carnobacterium 1 (Carnobacterium gallinarum)
Assay Value: 1.19
--
Compound: CC1(C)CON(Cc2ccccc2Cl)C1=O
System Under Test: Carnobacterium 1 (Carnobacterium gallinarum)
Assay Value: 0.914
--
Compound: CO/C=C(/C(=O)OC)c1ccccc1COc1cccc(C(F)(F)F)n1
System Under Test: Carnobacterium 1 (Carnobacterium gallinarum)
Assay Value: 0.98
--
Compound: COP(=O)(OC)OC=C(Cl)Cl
System Under Test: Carnobacterium 1 (Carnobacterium gallinarum)
Assay Value: 0.961
--
Compound: CCCC(Cn1cncn1)c1ccc(Cl)cc1Cl (stereo not given)
System Under Test: Carnobacterium 1 (Carnobacterium gallinarum)
Assay Value: 1.13
--
Compound: CCOP(=S)(OCC)Oc1nc(Cl)c(Cl)cc1Cl
System Under Test: Carnobacterium 1 (Carnobacterium gallinarum)
Assay Value: 1.1
--
Compound: CC(C)(C)c1ccc(CSc2cnn(C(C)(C)C)c(=O)c2Cl)cc1
System Under Test: Carnobacterium 1 (Carnobacterium gallinarum)
Assay Value: 1.3
--
Compound: COc1ccc(-c2ccccc2)cc1NNC(=O)OC(C)C
System Under Test: Carnobacterium 1 (Carnobacterium gallinarum)
Assay Value: 0.828
--
Compound: COc1cccc(C(=O)NN(C(=O)c2cc(C)cc(C)c2)C(C)(C)C)c1C
System Under Test: Carnobacterium 1 (Carnobacterium gallinarum)
Assay Value: 0.863
--
Compound: CCC(=O)Nc1ccc(Cl)c(Cl)c1
System Under Test: Carnobacterium 1 (Carnobacterium gallinarum)
Assay Value: 0.897
--
Compound: Fc1ccc(Oc2ccnc3cc(Cl)cc(Cl)c23)cc1
System Under Test: Carnobacterium 1 (Carnobacterium gallinarum)
Assay Value: 1.13
--
Compound: Cc1cccc2sc3nncn3c12
System Under Test: Carnobacterium 1 (Carnobacterium gallinarum)
Assay Value: 0.911
